- TARGET UNDER TEST: T1, CLuc-FGF14-1b (human) (UniProt Q92915)
- T1 sequence: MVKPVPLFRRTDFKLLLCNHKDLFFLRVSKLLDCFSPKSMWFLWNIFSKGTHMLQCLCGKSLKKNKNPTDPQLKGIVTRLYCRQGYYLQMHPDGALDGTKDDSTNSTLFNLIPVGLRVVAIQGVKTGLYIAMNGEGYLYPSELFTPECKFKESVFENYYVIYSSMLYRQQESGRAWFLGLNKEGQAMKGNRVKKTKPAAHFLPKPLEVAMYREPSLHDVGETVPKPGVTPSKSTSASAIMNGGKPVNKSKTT
- PROTOCOL NOTES: split reporter
*: point of attachment. Adamantane1carbonyl = O=C(C12CC3CC(CC(C3)C1)C2)*; OtBu = CC(C)(C)O*
READOUT NAME: efficacy (percent inhibition at the bottom plateau) (%)
One number for each entry, in %.

Field: efficacy (percent inhibition at the bottom plateau). Fill in for each record below.
1. Adamantane1carbonyl-PLE(OtBu)V-{O‑cyclohexyl} [compound 23e]
2. Adamantane1carbonyl-PLE(OtBu)V-{O‑allyl} [compound 23a]
3. Adamantane1carbonyl-PLE(OtBu)V-OMe (SMILES COC(=O)[C@@H](NC(=O)[C@H](CCC(=O)OC(C)(C)C)NC(=O)[C@H](CC(C)C)NC(=O)[C@@H]1CCCN1C(=O)C12CC3CC(CC(C3)C1)C2)C(C)C) [compound 21a]
4. Adamantane1carbonyl-PLE(OtBu)V-OtBu (SMILES CC(C)C[C@H](NC(=O)[C@@H]1CCCN1C(=O)C12CC3CC(CC(C3)C1)C2)C(=O)N[C@@H](CCC(=O)OC(C)(C)C)C(=O)N[C@H](C(=O)OC(C)(C)C)C(C)C) [compound 23d]
5. Adamantane1carbonyl-PLE(OtBu)V-OEt (SMILES CCOC(=O)[C@@H](NC(=O)[C@H](CCC(=O)OC(C)(C)C)NC(=O)[C@H](CC(C)C)NC(=O)[C@@H]1CCCN1C(=O)C12CC3CC(CC(C3)C1)C2)C(C)C) [compound 23f]

Response given:
[69.9, 95.5, 96.1, 92.1, 82.3]

For each of the binders below, note its efficacy (percent inhibition at the bottom plateau).
1. Adamantane1carbonyl-PLE(OtBu)V-{O‑propyl} [compound 23g]
2. Adamantane1carbonyl-PLE(OtBu)V-{O‑propargyl} [compound 23b]

Response given:
83.3
96.6
